Hi there, I'd appreciate the recorded melting point for every entry that follows.

Request: For the compound shown here, CC(=O)NC[C@H]1CN(c2ccc(OC3CCCN(c4ncccn4)C3)c(F)c2)C(=O)O1 (some centres unmarked) , give the reported melting point.
Response: 130 to 131 °C

Request: Same question, CC(=O)NC[C@H]1CN(c2ccc(OC3CCN(C(=O)c4cccnc4)CC3)c(F)c2)C(=O)O1 this time
Response: 49 to 53 °C

Request: Same question, CC(=O)NCC(=O)N1CCC(Oc2ccc(N3C[C@H](CNC(C)=O)OC3=O)cc2F)CC1 this time
Response: 66 to 68 °C

Request: Same question, CC(=O)NC[C@H]1CN(c2ccc(OC3CCN(C(=O)COC(C)=O)CC3)c(F)c2)C(=O)O1 this time
Response: 146 to 147.5 °C

Request: Same question, CC(=O)NC[C@H]1CN(c2ccc(OC3CCN(C(=O)c4ccco4)CC3)c(F)c2)C(=O)O1 this time
Response: 134 to 136 °C

Request: Same question, CC(=O)NC[C@H]1CN(c2ccc(OC3CCNCC3)c(F)c2)C(=O)O1 this time
Response: 55 to 59 °C

Request: Same question, CC(=O)NC[C@H]1CN(c2ccc(OC3CCN(C(=O)c4cccs4)CC3)c(F)c2)C(=O)O1 this time
Response: 48 to 51 °C

Request: Same question, CC(=O)NC[C@H]1CN(c2ccc(OC3CCN(S(C)(=O)=O)CC3)nc2)C(=O)O1 this time
Response: 175 to 176 °C

----------
Hi there, I'd appreciate the recorded melting point for every entry that follows.

Request: For the molecule shown here, CC(=O)NC[C@H]1CN(c2ccc(OC3CCN(C(=O)COCc4ccccc4)C3)c(F)c2)C(=O)O1 (stereo partly drawn) [Compound 39] , give the reported melting point.
Response: 53 to 55 °C

Request: Same question, CC(=O)NC[C@H]1CN(c2ccc(OC3CCN(C(=O)CN)CC3)c(F)c2)C(=O)O1 [Compound 16] this time
Response: 142 to 146 °C

Request: Same question, CC(=O)NC[C@H]1CN(c2ccc(OC3CCN(C(=O)N4CCOCC4)CC3)c(F)c2)C(=O)O1 [Compound 25] this time
Response: 167 to 170 °C
